tested on: P388 leukemia ip, CD2F1 mice, survival T/C; assay: NCI In Vivo Anticancer Drug Screen. Data for tumor model P388 Leukemia (intraperitoneal) in CD2F1 (CDF1) mice; details: endpoint: median survival time; dose: 200.0 mg/kg/injection; schedule: Q01DX001 (ip); vehicle: saline; higher = longer survival
Inconclusive results and toxic doses are left out.
Documented T/C across a set of compounds

Compound	T/C
NCCNCCN1C(=O)c2cccc3cccc(c23)C1=O	86 % of control
CC1OC(n2cc(F)c(=O)[nH]c2=O)CC1O (stereo not given)	105 % of control
NC(c1ccccc1)S(=O)(=O)O (stereo not given)	100 % of control
CCOP(=O)(Nc1ccc(C)cc1)OCC	109 % of control
OCC1OC2OCCOC2OC1CO (stereo not given)	96 % of control

Problem: Which measured T/C value corresponds to "CCN(CC)Cc1cc(Nc2nc(/C=C/c3ccc(Cl)cc3)nc(Cl)c2-c2ccc(Cl)cc2)ccc1O" ?
Result: 103 % of control

Problem: Which value of T/C has been reported for "O=C(NC(=O)c1cccc2ccccc12)NC(=S)c1ccccc1" in the records?
Result: 88 % of control
